The following compounds are shown together with reported pIC50 values.
Protein target, amino acids: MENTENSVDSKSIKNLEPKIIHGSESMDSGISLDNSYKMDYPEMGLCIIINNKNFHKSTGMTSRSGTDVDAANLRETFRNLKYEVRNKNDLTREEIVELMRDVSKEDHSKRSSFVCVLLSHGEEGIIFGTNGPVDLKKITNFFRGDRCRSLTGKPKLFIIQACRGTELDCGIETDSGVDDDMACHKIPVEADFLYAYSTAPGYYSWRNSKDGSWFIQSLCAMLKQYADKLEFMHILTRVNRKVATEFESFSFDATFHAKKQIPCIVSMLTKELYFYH
By convention, pIC50 is the negative base-10 log of a molar concentration.

* CC(=O)OCC(OC(C)=O)c1c[nH]c2c1C(=O)C(Cl)=C(N)C2=O (configuration not stated) [SECOBATZELLINE B DIACETATE] | 4.59

Query compound follows.
INPUT: Entry CC(=O)OCC(OC(C)=O)c1c[nH]c2c1C(=N)C(Cl)=C(N)C2=O (configuration not stated) [SECOBATZELLINE A DIACETATE] has what pIC50?
OUTPUT: 5.63
